Tested on: OVCAR-3 ovarian
Experiment: NCI-60 one-dose screen, 48 h (100 = growth as untreated, 0 = no growth, -100 = all killed)
Conditions: 10 µM unless noted
The panel holds about 83,000 compounds, 20% with a hit somewhere; the sample as a whole holds those more often.
Recorded growth for the following molecules
The figure you give is taken to be in %; do not add the unit.

Reported growth ( ClCc1cccc2c(CCl)cccc12 ) = 62.7

Reported growth ( CC1CCC(C(C)(C)[N+](C)(C)C)CC1 (centres undefined) ) = 107

Reported growth ( CS(=O)(=O)c1ccc(/C=C\C(=O)O)cc1 ) = 102

Reported growth ( O=C1CSc2ccccc2N1 ) = 115

Reported growth ( CC(=O)NNC(=S)/N=C\C(C(=O)c1ccccc1)=C(/O)c1ccccc1 ) = 109

Reported growth ( CC1(C)CCC(C)(C)NC(=S)N1 ) = 111

Reported growth ( S=c1nc2[nH]c3ccccc3c2n[nH]1 ) = 88.6

Reported growth ( CC(C)(C)CC1(C)NC(=O)NC1=O (centres undefined) ) = 120

Reported growth ( Clc1ccc(C(SCc2ccccc2)SCc2ccccc2)cc1 ) = 90.1

Reported growth ( N#C/C(=C\c1ccc2c(c1)OCO2)c1ccccc1 ) = 79.4

Reported growth ( O=c1[nH]c(=O)c2cc(Cl)cc(Cl)c2[nH]1 ) = 126

Reported growth ( Cc1cccc(-[n+]2noc(N)n2)c1 ) = 77

Reported growth ( CC1CCC(C)(C)c2ccccc21 (centres undefined) ) = 114

Reported growth ( CC(CO)(CO)C(=O)O ) = 106

Reported growth ( CCNC(=O)OCCc1c2ccccc2nc2ccccc12 ) = 109

Reported growth ( O=c1cc(Cl)nc2ccccn12 ) = 100

Reported growth ( CC(=O)N=c1ccc2nc3c(cc(N)c4ccccc43)oc-2c1 ) = -82.8

* * *

System: NCI-H460 lung
Assay: NCI-60 one-dose screen, 48 h
Conditions: 10 µM unless noted
This is part of a sample that, as a whole, favours compounds with a hit. Of some 83,000 tested, about 20% had one in any assay. Calls of active or inactive are those of the source. The calls were made as follows: active = growth percent below 10; inactive = the rest.
Reply using exactly one outcome from active, inactive

Use these answered entries as a reference point.
Compound	Class Name
Nc1c(O)c(S(=O)(=O)O)c(O)c2c1C(=O)c1ccccc1C2=O	active
CC(=O)N=c1ccc2nc3c(cc(N)c4ccccc43)oc-2c1	active
CC(C)(CC(=O)O)CC(=O)O	inactive
CC(=O)NC(CCc1ccc(Cl)c(Cl)c1)c1cccc(O)c(=O)c1 (stereo not given)	active
CCOc1ccncc1[N+](=O)[O-]	inactive

Hi, do you know how CCOP(=O)(OCC)/C(=C\N1C(=O)CC(=O)NC1=S)C(=O)OC came out in this test?
inactive

Hi, do you know how C/C(=N\O)c1ccccn1 came out in this test?
inactive

Hi, do you know how CCOC(=O)N[C@H]1CCc2cc(OC)c(OC)c(OC)c2-c2ccc(SC)c(=O)cc21 came out in this test?
active

Hi, do you know how O=C(NC1CCCCC1)c1ccc(Cl)cc1 came out in this test?
inactive

* * *

System: LOX IMVI melanoma
Test: NCI-60 one-dose screen, 48 h
Conditions: 10 µM
The panel holds about 83,000 compounds, 20% with a hit somewhere; the sample as a whole holds those more often. Calls of active or inactive are those of the source. The calls were made as follows: active = growth percent below 10; inactive = the rest.
Reply using exactly one outcome from active, inactive

Use these answered entries as a reference point.
Molecule	Class Name
C/C(O)=C(/C=N/C(=S)Nc1ccccc1)C(=O)Nc1ccccc1C	inactive
CC(=O)c1cc(O)ccc1O	inactive
CCOC(C=O)OCC	inactive
COc1ccc(NNS(=O)(=O)O)cc1	inactive
CCOC(=O)C(C#N)=C1CCN(C)CC1	inactive

Hi, do you know how Cc1ccc(C)c(CCO)c1 came out in this test?
inactive

Hi, do you know how CCCCCCCCCCCCCCCCCC(=O)NCCNC(=O)CCCCCCCCCCCCCCCCC came out in this test?
inactive

Hi, do you know how CCC(=O)C1C(=O)c2ccccc2C1=O came out in this test?
inactive

Hi, do you know how COc1cc(C(=O)N2CCN(c3ccccc3)CC2)c2ccccc2n1 came out in this test?
inactive

Hi, do you know how S=CN1CCCCC1 came out in this test?
inactive

Hi, do you know how CC(C)C1CCC(C)C(O)C1 (stereo unspecified) came out in this test?
inactive

Hi, do you know how NC(=S)N/N=C/c1ccc(OC(=O)COc2ccccc2)cn1 came out in this test?
inactive

Hi, do you know how O=Cc1c(O)c2ccccc2[nH]c1=O came out in this test?
inactive

* * *

Recorded growth for the following molecules
Test system: OVCAR-8 ovarian
Test: NCI-60 one-dose screen, 48 h (100 = growth as untreated, 0 = no growth, -100 = all killed)
Details: 10 µM unless noted
Compounds without any hit were thinned out: in the full panel of roughly 83,000, 20% have a hit.
The figure you give is taken to be in %; do not add the unit.

Reported growth ( NC(=O)N1CCOCC1 ) = 103

Reported growth ( Clc1ncnc2nc[nH]c12 ) = 102

Reported growth ( CC(=O)O[C@H]1CC[C@]2(C)C3=C(C(=O)C[C@H]2C1(C)C)[C@]1(C)CC[C@H]([C@H](C)CCC(=O)O)[C@@]1(C)CC3=O ) = 109

Reported growth ( CCOS(=O)(=O)c1ccc([N+](=O)[O-])cc1 ) = 104

Reported growth ( C=CCc1cc(OC)c(OC)c(OC)c1 ) = 102

Reported growth ( NNc1ncccn1 ) = 108

Reported growth ( O=C1C=C[C@H](O)[C@@]2(CO)O[C@@H]12 ) = 78.2

Reported growth ( COc1ccc(Nc2cc(Cl)ccc2C(=O)O)cn1 ) = 103

* * *

Tested on: M14 melanoma
Experiment: NCI-60 one-dose screen, 48 h
Details: 10 µM unless noted
The panel holds about 83,000 compounds, 20% with a hit somewhere; the sample as a whole holds those more often. Calls of active or inactive are those of the source. The calls were made as follows: active = growth percent below 10; inactive = the rest.
Reply using exactly one outcome from active, inactive

Hi, do you know how C1=NCCc2ccccc21 came out in this test?
inactive

Hi, do you know how CCN(C(C)=O)c1ccc([N+](=O)[O-])cc1 came out in this test?
inactive

Hi, do you know how C/C(=N\Nc1ccc([N+](=O)[O-])cc1[N+](=O)[O-])c1ccc(Br)cc1 came out in this test?
inactive

Hi, do you know how CCCCNC(=O)c1ccc(OCC)cc1 came out in this test?
inactive

Hi, do you know how CC(C)(N)CO[C@H]1C[C@H]2CC[C@@]1(C)C2(C)C came out in this test?
inactive

Hi, do you know how CCOC(=O)/C(O)=C(\C=N\C(=S)Nc1ccc(Cl)c(Cl)c1)C(=O)OCC came out in this test?
inactive

Hi, do you know how Cc1cc2nc(C)c(C)nc2cc1C came out in this test?
inactive

Hi, do you know how COc1c(CNC(=O)CCl)cc2[nH]c(C)cc2c1CNC(=O)CCl came out in this test?
inactive

Hi, do you know how COc1cc2c(c(OC)c1OC)-c1ccc(SC)c(=O)cc1[C@@H](NC1OC(CO)C(O)C(O)C1O)CC2 (some centres undefined) came out in this test?
inactive

* * *

Tested on: MCF7 breast
Assay: NCI-60 one-dose screen, 48 h (100 = growth as untreated, 0 = no growth, -100 = all killed)
Details: 10 µM unless noted
This is part of a sample that, as a whole, favours compounds with a hit. Of some 83,000 tested, about 20% had one in any assay. Activity calls are given as the source filed them. The calls were made as follows: active = growth percent below 10; inactive = the rest.
Recorded growth for the following compounds

# count of solved cases: 6
Compound	growth
O=C(NCc1ccccc1)c1cccc([N+](=O)[O-])c1	97.8% (inactive)
CCNc1ncnc2[nH]ncc12	93.3% (inactive)
CCN(C(C)=O)c1ccc([N+](=O)[O-])cc1	98.1% (inactive)
Cc1cc(CC(=O)NCCO)n(CCO)c(=O)c1	102% (inactive)
O=[N+]([O-])c1ccc(-c2nc(N(CCO)CCO)c3ccccc3n2)o1	0.425% (active)
Cc1cccnc1NC1OC(=O)c2ccccc21 (configuration not stated)	102% (inactive)

Reported growth ( c1ccc2[nH]c(Cc3nc4ccccc4[nH]3)nc2c1 ) = 84.9% (inactive)

Reported growth ( N#Cc1ccc(OC(=O)Nc2cc(Cl)cc(Cl)c2)cc1 ) = -25.7% [100 µM] (active)

Reported growth ( CC(=O)Nc1ncc(S(=O)(=O)c2ccc([N+](=O)[O-])cc2)s1 ) = 105% (inactive)

Reported growth ( COC(=O)Cc1cc(COC(C)=O)ccc1C ) = 106% (inactive)

Reported growth ( Oc1cc(O)c2c(c1)O[C@H](c1ccc(O)c(O)c1)[C@@H](O)C2 ) = 104% (inactive)

Reported growth ( C/C(O)=C(/C=N/C(=S)Nc1ccccc1)C(=O)Nc1ccccc1C ) = 94.9% (inactive)

* * *

Recorded growth for the following compounds
Tested on: EKVX NSCLC
Assay: NCI-60 one-dose screen, 48 h (100 = growth as untreated, 0 = no growth, -100 = all killed)
Details: 10 µM unless noted
This is part of a sample that, as a whole, favours compounds with a hit. Of some 83,000 tested, about 20% had one in any assay.
The figure you give is taken to be in %; do not add the unit.

# count of solved cases: 2
CN(C)Cc1ccccn1 99.5
COc1cccc2c1Cc1ccccc1-2 102

Measured on EKVX NSCLC, Nc1ccc2ccccc2c1-c1c(N)ccc2ccccc12 has a documented growth of 36.5
